# Tested on: SK-MEL-5 melanoma
# PROTOCOL: NCI tumour cell line growth inhibition, 48 h
ENDPOINT: GI50

N#Cc1c(N/N=C/c2ccc(Cl)cc2Cl)nc(N)nc1N1CCCC1	21.5 µM

Give the reported value of GI50 for this record: "Cc1cc(C)c(NC(=O)c2sc3nc4c(cc3c2N)CN(Cc2ccccc2)CC4)c(C)c1"
1.47 µM

* * *

GI50 by entry:
# Tested on: T-47D breast
# PROTOCOL: NCI tumour cell line growth inhibition, 48 h

Here are 8 molecules together with their reported answers.
N=C(N)c1ccc2nc(-c3cc(CC(=O)N[C@@H](CC(=O)O)C(=O)O)cc(-c4cc(S(N)(=O)=O)ccc4O)c3O)[nH]c2c1	> 100 µM
CSc1ccc2c(c1)C(=O)c1c-2n(CCCBr)c(=O)c2cc([N+](=O)[O-])ccc12	17.8 µM
O=C1NC(=O)C(c2cccc([N+](=O)[O-])c2)=C1Nc1cc(Cl)c(O)c(Cl)c1	> 25 µM
CCCCCOc1ccc(/C=N/Nc2cc(C)nc3ccc(Br)cc23)cc1	1.81 µM
CC(C)(S)C(N)C(=O)O (configuration not stated)	1170 µM
N#CC1=C(N)Oc2cc(O)ccc2C1c1cccc2ccccc12 (configuration not stated)	17.2 µM
CCOC(=O)/C=C(/C)Sc1cc(O)c2ccccc2c1O	2.23 µM
O[C@H](c1cc(C(F)(F)F)nc2c(C(F)(F)F)cccc12)[C@@H]1CCCCN1	3.82 µM

# return recorded GI50 for input "COc1cc(OC)c(/C=C/c2c3ccccc3cc[n+]2C)c(OC)c1"
0.541 µM

Note GI50 for the molecule shown: "N#Cc1c(N/N=C/c2ccc(Cl)cc2Cl)nc(N)nc1N1CCCC1"
88.4 µM

Query GI50 for "COc1ccc(-n2c(C)cc(-c3ccccc3)c2C)cc1"
1.65 µM

Return the recorded GI50 value; entry: CCN1C(=O)N(CC)C2C1NN=c1s/c(=C3\C(=O)N(CC(C)(C)C)c4ccccc43)c(=O)n12 (configuration not stated)
5.71 µM

* * *

// reported GI50 per item
# System: SK-MEL-28 melanoma
# PROTOCOL: NCI tumour cell line growth inhibition, 48 h

CCCOc1ccc2sc(NC(=O)OC)nc2c1	18.6 µM

Give reported GI50 value for "COc1ncc(-c2ccc3ncnc(Nc4cccc(Cl)c4)c3c2)cc1NS(=O)(=O)C1CC1"
> 100 µM

Give the measured GI50 for "O=C1NC(=O)C(c2cccc([N+](=O)[O-])c2)=C1Nc1cc(Cl)c(O)c(Cl)c1"
> 25 µM

Return reported GI50. Input compound: "CC(=O)[O][Ga]([Br])[O]C(C)=O"
> 100 µM

Note GI50 for the compound shown: CC1=C(C(=O)Nc2ccc(Cl)c(Cl)c2)C(c2cccc(Oc3ccccc3)c2)NC(=O)N1 (stereo unspecified)
11.1 µM

Query GI50 for "COc1ccc(CCNC(=O)c2ccc(NC3=C(Cl)C(=O)N(Cc4ccccc4)C3=O)cc2)cc1OC"
15.1 µM

Complete the entry with GI50 for "CCCCCOc1ccc(/C=N/Nc2cc(C)nc3ccc(Br)cc23)cc1"
1.65 µM

Read off the recorded GI50 for "Cc1cc(C)c(NC(=O)c2sc3nc4c(cc3c2N)CN(Cc2ccccc2)CC4)c(C)c1"
6.97 µM

Quick one: give measured GI50 for "O[C@H](c1cc(C(F)(F)F)nc2c(C(F)(F)F)cccc12)[C@@H]1CCCCN1"
2.29 µM

Answer with the recorded GI50 for the compound listed here: "NC(=O)OCCn1cc(-c2nc(-c3c[nH]c4ncccc34)cs2)c2ccccc21"
2.05 µM

Could you please provide reported GI50 for "N#Cc1c(N/N=C/c2ccc(Cl)cc2Cl)nc(N)nc1N1CCCC1" ? Thanks!
37.6 µM

The measured values listed here are drawn from PubChem BioAssay (NCI).
